The compounds listed here are annotated with their TGI.
# Tested on: SNB-19 CNS
# Experiment Description: NCI tumour cell line growth inhibition, 48 h

Known TGI results, listed for orientation:
>>> df
                                   compound  readout  observed_result
0  COc1ccc(CC2(O)C3CC4CCC2C4C3)cc1 (stereo unspecified)      TGI         > 100 µM
1  CC1=NNC(=O)C1C1CC(c2c[nH]c3ccccc23)=NNC1=O (stereo unspecified)      TGI         > 100 µM
2  Cc1ccccc1-n1c(=O)c2ncn(C3CCCO3)c2n(-c2ccccc2C)c1=S (stereo unspecified)      TGI         > 100 µM

QUERY: Fill in the recorded TGI for this compound, with SNB-19 CNS as test system: CN(C)c1ccc(C(Cc2ccccc2)C2NC(=S)NC2=O)cc1 (stereo unspecified)
RESULT: > 100 µM

QUERY: For SNB-19 CNS, provide TGI of O=C(NN1C(=O)CSC12CCCCC2)c1[nH]c2ccc(Br)cc2c1-c1ccccc1 please.
RESULT: 64.2 µM

QUERY: Kindly state the measured TGI obtained for COc1ccc2c(c1)C(=O)C1CC(=O)CCC21 (stereo unspecified) with SNB-19 CNS.
RESULT: > 100 µM

QUERY: Recall the recorded TGI for O=C(NC1=C(Cl)C(=O)c2ccccc2C1=O)c1ccc(F)cc1 with SNB-19 CNS and state it.
RESULT: 17.3 µM

QUERY: Look up TGI with SNB-19 CNS for this compound: O=C(Nc1nc2ccc([N+](=O)[O-])cc2s1)C(=O)C(C(=O)c1ccccc1F)C1OC(=O)c2ccccc21 (stereo unspecified)
RESULT: > 100 µM

QUERY: Request - read-out TGI | tested on SNB-19 CNS | compound CC1(O)C=CC(=O)C=C1
RESULT: 70.3 µM

QUERY: Recall the recorded TGI for COc1cc(C2SCC(=O)N2c2cccc(Cl)c2)cc(OC)c1OC (stereo unspecified) with SNB-19 CNS and state it.
RESULT: > 100 µM

QUERY: # get_value(readout= TGI, system= SNB-19 CNS) for CC1=NN(C(=O)c2ccncc2)C(=O)C1
RESULT: > 100 µM
